Target: T1, purified recombinant 161P2F10B extracellular domain (Tag5-161P2F10B ECD, amino acids 46-875) (human, UniProt O14638 46-875)
T1 construct: also called full length ECD
Assay: SPR (BIAcore), MAb captured on chip, recombinant 161P2F10B injected, 1:1 fit;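 further: purified human MAbs immobilised by capture on a CM5 chip surface, about 150 RU of antibody per cycle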
kon: recorded values
Respond numerically; units are M⁻¹ s⁻¹ and should not be typed.

Known kon results, listed for orientation:
| binder | parameter | recorded.number |
| --- | --- | --- |
| Ha16-1(3,5)42 (antibody, V domains shown, Entries hold the leader (or part of it) and a portion of the constant region) VH: EVQLVQSGAEVKKPGESLKISCKGSGYRFTSYWIGWVRQMPGKGLEWMGIIYPGDSDTRYSPSFQGQVTISADKSISTAYLQWSSLKASDTAMYYCARKDYYYYSMDVWGQGTTVTVSS VL: QSALTQPASVSGSPGQSITISCTGTSSDVGRFNYVSWYQQRPGKAPKLMIYAVNIRPSGVSNRFSGSKSGNTASLTISGLQAEDEAGYYCSSYTSSSTLLVFGGGTKLTVLG | kon | 47600 |
| Ha16-1(3,5)19 (antibody, V domains shown, Entries hold part of the leader and a portion of the constant region) VH: EVQLVQSGAEVKKPGESLKISCKGSGYRFTSYWIGWVRQMPGKGLEWMGIIYPGDSDTRYSPSFQGQVTISADKSISTAYLQWSSLKASDTAMYYCARKDYYYYAMDVWGQGTTVTVSS VL: QSALTQPASVSGSPGQSITISCTGTSSDVGRYNYVSWYQQHPGQAPKLMIYGISIRPSGVSPRFSGSKSGNTASLTISGLQAEDEADYYCSSHTSNSTLVVFAGGTKLTVLG | kon | 50000 |

# kon of H16-9.33 (antibody, V domains shown) VH: EVQLLESGPGLVKPSQTLSLTCAISGDSVSSNSAAWNWIRQSPSRGLEWLGRTYYRSKYYNAYPVSVKSRITINPDTSKNQFSLQLNSVTPEDTAVYYCAREAGGWFDPWGQGTLVTVSS VL: DIQMTQSPSSVSASVGDRVTITCRANQGIRSWLAWYQQKPGKAPKLLIYAASSLQSGVPSRFSGSGSGTDFTLTISSLQPEDFATYYCQQANSFPPTFGGGTKVEIKR = 66300

Where do these numbers come from? They come from patent US20090022663A1.
